Where do these numbers come from? They come from PubChem BioAssay (NCI).

# Tested on: SN12C renal
# method: NCI-60 one-dose screen, 48 h (100 = growth as untreated, 0 = no growth, -100 = all killed)
# assay_conditions: 10 µM unless noted
Compounds without any hit were thinned out: in the full panel of roughly 83,000, 20% have a hit.
The label is yes (1) for growth below 70% and no (0) for growth equal to or exceeding 70%.

| compound | assigned_label |
| --- | --- |
| CC(=C(c1ccc(OCCN2CCCCC2)cc1)c1ccc(OCCN2CCCCC2)cc1)c1ccc(Cl)cc1 | yes (1) |
| CCN1C(=O)N(CC)C2C1NN=c1s/c(=C3\C(=O)N(CCC(C)C)c4ccccc43)c(=O)n12 (stereo unspecified) | yes (1) |
| CC/C(Cc1ccccc1)=C(\c1ccc(OCCCN(C)C)cc1)c1ccc(OC(=O)NCc2ccccc2)cc1 | no (0) |
| C=C1C(=O)O[C@H]2[C@H]1CC/C(COC(=O)/C=C\C(=O)NCc1ccc(Cn3c(=O)sn(CCCl)c3=O)cc1)=C\CC[C@@]1(C)O[C@@H]21 | no (0) |
| CN1CCN(CCOc2ccc(-c3cnc4c(-c5ccc(F)cc5)cnn4c3)cc2)CC1 | yes (1) |
| CNC1=CC(=O)c2c(C(=O)OC)c(C)[n+]([O-])c(C)c2C1=O | yes (1) |
| Ic1ccccc1I | no (0) |
| CN(C)CCCC1(c2ccc(F)cc2)OCc2cc(-c3cc4ccccc4s3)ccc21 (stereo unspecified) | yes (1) |
| C=C(C)[C@@H]1CCC[C@]2(C(=O)N3CCN(C)CC3)CC[C@]3(C)[C@@H](CC[C@@H]4[C@@]5(C)CC/C(=N\NC(=O)c6ccncc6)C(C)(C)[C@@H]5CC[C@]43C)[C@@H]12 | no (0) |
| Cc1ccc(-c2nc(/C=C3/C(=O)Nc4ccc(F)cc43)c3ccccn23)cc1 | no (0) |
| Cc1ccc2c(-c3nnc(N)s3)cc(=O)oc2c1C | no (0) |
| C=C1CC[C@@H]2[C@](C)(COC(C)=O)[C@H](OC(C)=O)CC[C@@]2(C)[C@@H]1CC(Nc1ccc(S(=O)(=O)NC(C)=O)cc1)C1=CCOC1=O (stereo partly specified) | yes (1) |
| COc1ccc(CCN(CC(=O)N(CC(N)=O)C2CCC[C@@H]2OCc2ccccc2)C(=O)CN(C(=O)CN(CCc2ccc(Cl)cc2)C(=O)CN(C(=O)CN(C)Cc2ccccc2F)[C@H](C)C2CCCCC2)[C@H](C)C2CCCCC2)cc1OC (stereo partly specified) | yes (1) |
| C=C1C(=O)O[C@H]2[C@H]1CC/C(COC(=O)CSCSCC(=O)OC/C1=C/CC[C@@]3(C)O[C@H]3[C@H]3OC(=O)C(=C)[C@@H]3CC1)=C\CC[C@@]1(C)O[C@@H]21 | yes (1) |
| COc1cc(OC)c(C(=O)C(CN(C)C)CN(C)C)cc1OC | no (0) |

---

Overview of recorded growth for various molecules
# Tested on: HCC-2998 colon
# method: NCI-60 one-dose screen, 48 h (100 = growth as untreated, 0 = no growth, -100 = all killed)
# assay_conditions: 10 µM unless noted
This is part of a sample that, as a whole, favours compounds with a hit. Of some 83,000 tested, about 20% had one in any assay.

| smiles_data | growth / % |
| --- | --- |
| NC(=O)c1c(NC(=O)c2cccs2)sc2c1CCC(=O)C2 | 72.9 |
| O=C1Nc2c(C(=O)O)cccc2/C1=N/c1n[nH]c(=S)s1 | 103 |
| NC(=O)c1cccc([C@@H]2O[C@H](CO)[C@@H](O)[C@H]2O)c1 | 93.9 |
| Cc1ccc(-c2nc(/C=C3/C(=O)Nc4ccc(F)cc43)c3ccccn23)cc1 | 95 |
| O=c1nc(-c2ccccc2)c2cc(-c3ccc(C(F)(F)F)nc3)ccc2[nH]1 | 105 |
